Measured viability at 24 h, 20 µM of individual entries
# Assay explanation: MTT cell viability assay (cytotoxicity) in J774 macrophages
# Format: cell-based, murine
# Study conditions: mouse
I only need the number, in %, no unit after it.

compound=CCCCCCCCCCCC1=C(O)C(=O)C=C(Nc2cccc([N+](=O)[O-])c2)C1=O result_unit=% observed=50.8
compound=CCCCCCCCCCCC1=C(O)C(=O)C=C(Nc2ccccc2)C1=O result_unit=% observed=56.2
compound="CCCCCCCCCCCC1=C(O)C(=O)C2=C(Nc3ccccc3C2c2ccc(OC)c(OC)c2)C1=O (centres unmarked)" result_unit=% observed=36.9
compound=CCCCCCCCCCCC1=C(O)C(=O)C=C(Nc2ccc(OC)cc2)C1=O result_unit=% observed=48.3
compound="CCCCCCCCCCCC1=C(O)C(=O)C2=C(Nc3ccccc3C2c2ccc(C)c(C)c2)C1=O (centres unmarked)" result_unit=% observed=72.6
compound="CCCCCCCCCCCC1=C(O)C(=O)C2=C(Nc3ccccc3C2c2ccc(Cl)cc2)C1=O (centres unmarked)" result_unit=% observed=39.5

Data request: Any idea what viability at 24 h, 20 µM was measured for CCCCCCCCCCCC1=C(O)C(=O)c2c(nc3ccccc3c2-c2ccsc2)C1=O ?
Data returned: 56.7

Data request: Any idea what viability at 24 h, 20 µM was measured for CCCCCCCCCCCC1=C(O)C(=O)C2=C(Nc3ccccc3C2c2cccc(F)c2)C1=O (centres unmarked) ?
Data returned: 97.8
